target: T1, bacterially produced human IL-6 (human, UniProt P05231 30-212); experiment: SPR; purified Fab over biotinylated IL-6 on streptavidin chip
T1 construct: also called bactIL-6; prokaryotic IL-6
Readout Kind: pKd
Answers are plain numbers, as −log10 of the molar value.

Use the examples below as a reference point.
- Binder: "Fab 24E9 (Fab, V domains shown, Fab) VH: EVQLVESGGGLVQPGGSLRLSCAASGFTFSTYAMSWVRQAPGKGPEWVSRISSGGGSTNYADSVKGRFTISRDNAKKTLYLQMKSLKPEDTAVYYCANRAGWGMGDYWGQGTQVTVSS VL: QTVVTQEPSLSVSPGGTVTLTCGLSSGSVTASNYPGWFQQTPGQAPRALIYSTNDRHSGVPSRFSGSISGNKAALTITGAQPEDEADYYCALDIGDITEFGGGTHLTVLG"
  pKd: 8.92
- Binder: "Fab 28C6 (Fab, V domains shown, Fab) VH: QVQLVESGGGLVQPGGSLRLSCAASGFTFSNYYMTWVRQAPGKGLEWVSSIYSFSGDTAYADSVKGRFTISRDNAKNTLYLQMNKLKSEDTAVYYCTRDLGGVVVTANGYDYWGQGTQVTVSS VL: DIVMTQTPSSLSASLGDRVTITCQASQSISTELSWYQQKPGQTPKLLIYGASRLQTGVPARFSGSGSGTSFTLTISGLEAEDLATYYCLQDYSWPYSFGSGTRL"
  pKd: 7.61

Consider the record given below.
## Input Which pKd value belongs to Fab 18C11 (Fab, V domains shown, Fab) VH: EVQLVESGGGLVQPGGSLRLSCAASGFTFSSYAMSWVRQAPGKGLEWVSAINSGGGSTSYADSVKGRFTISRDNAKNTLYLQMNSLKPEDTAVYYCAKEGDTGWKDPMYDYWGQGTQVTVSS VL: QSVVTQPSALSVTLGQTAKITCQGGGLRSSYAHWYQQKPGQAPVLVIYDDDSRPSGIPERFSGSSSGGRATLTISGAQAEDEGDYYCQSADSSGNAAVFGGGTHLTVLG ?
## Output 7.85
